- Measured On: NAD-dependent protein deacetylase sirtuin-1 (Homo sapiens, UniProt Q96EB6)
- Sequence (Q96EB6 whole entry): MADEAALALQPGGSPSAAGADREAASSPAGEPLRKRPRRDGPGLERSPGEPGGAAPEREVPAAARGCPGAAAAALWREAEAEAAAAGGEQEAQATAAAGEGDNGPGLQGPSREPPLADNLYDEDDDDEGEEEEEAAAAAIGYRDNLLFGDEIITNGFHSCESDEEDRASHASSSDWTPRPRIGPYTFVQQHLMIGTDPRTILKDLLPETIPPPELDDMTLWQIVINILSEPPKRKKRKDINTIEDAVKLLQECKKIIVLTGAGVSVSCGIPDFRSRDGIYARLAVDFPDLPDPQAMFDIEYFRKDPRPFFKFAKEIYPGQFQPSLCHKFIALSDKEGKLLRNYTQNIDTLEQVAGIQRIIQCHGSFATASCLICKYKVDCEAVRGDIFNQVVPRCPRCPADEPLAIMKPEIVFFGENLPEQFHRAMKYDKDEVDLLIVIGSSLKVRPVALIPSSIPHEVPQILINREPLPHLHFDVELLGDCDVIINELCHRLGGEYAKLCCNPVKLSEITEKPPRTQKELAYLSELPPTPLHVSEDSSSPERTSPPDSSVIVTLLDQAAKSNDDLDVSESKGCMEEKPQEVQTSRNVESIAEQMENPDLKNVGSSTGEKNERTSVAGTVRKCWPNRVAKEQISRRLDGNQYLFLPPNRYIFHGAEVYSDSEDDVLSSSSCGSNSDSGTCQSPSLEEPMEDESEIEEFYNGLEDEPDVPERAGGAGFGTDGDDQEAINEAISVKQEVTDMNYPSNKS
Rule: IC50 below 1 µM gives rule met. Equal to or above 1 µM gives rule not met.

1. CC(=O)Nc1nc(CN2CC(C(N)=O)Oc3ccccc32)cs1 (centres undefined) = rule met
2. CC(C)(C)OC(=O)CN1CC(C(N)=O)Oc2ccccc21 (centres undefined) = rule not met
3. N#Cc1cccc(NC(=O)N2CC(C(N)=O)Oc3ccccc32)c1 (centres undefined) = rule not met
4. NC(=O)C1CN(C(=O)c2ccc(CCl)cc2)c2ccccc2O1 (centres undefined) = rule not met
5. O=C(C1CN(Cc2ccccc2)c2ccccc2O1)N1CCCCC1 (centres undefined) = rule not met
6. NC(=O)C1CN(Cc2cn(Cc3ccccc3)nn2)c2ccccc2O1 (centres undefined) = rule not met

query: Criterion: IC50 strictly below 1 µM. Is it met by NC(=O)C1CN(Cc2cc(C(F)(F)F)cc(C(F)(F)F)c2)c2ccccc2O1 (centres undefined) ?
result: rule not met

query: Criterion: IC50 strictly below 1 µM. Is it met by NC(=O)C1CN(Cc2cnnn2Cc2ccccc2)c2ccccc2O1 (centres undefined) ?
result: rule not met

query: Criterion: IC50 strictly below 1 µM. Is it met by NC(=O)C1CN(Cc2ccccc2Cl)c2ccccc2O1 (centres undefined) ?
result: rule met

Source listed as ChEMBL document CHEMBL4834428.
